- TESTED ON: HIV-1 nucleocapsid protein NC (wild type) (HIV-1 pNL4-3, UniProt P12493 378-432)
- MEASUREMENT PROTOCOL: competition
Would you kindly list pIC50 for each of these binders?
Please express pIC50 as -log10 of the molar concentration.

// query I would be grateful if you could share the reported pIC50 for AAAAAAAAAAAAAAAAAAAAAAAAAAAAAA (ssDNA) [(A)30] .
// result 5.18

// query Same read-out for TGTGTGTGTGTGTGTGTGTG (ssDNA) [(TG)10] ?
// result 7.43

Origin of values: paper PMC1351370
